- system: cGMP-specific 3',5'-cyclic phosphodiesterase (PDE5A) (Sus scrofa)
- test summary: Inhibitory activity against cyclic GMP-phosphodiesterase (PDE V) isolated from porcine aorta.
property: IC50

Which value of IC50 has been reported for `CCCc1c(OCCCOc2ccc3c(=O)cc(C(=O)O)oc3c2CCC)ccc(C(C)=O)c1O` in the records?
1.5 µM

// same read-out, input: `COc1cc2c(NCc3ccco3)ncnc2c(OC)c1OC`
4 µM

Follow-up entry: `COc1cc(OC)c(CNc2ncnc3c(OC)c(OC)c(OC)cc23)c(OC)c1`
> 100 µM

Please do the same for `COc1cc2c(NCCCCCO)ncnc2c(OC)c1OC` as well.
5.5 µM

What about `COc1cc2c(NCc3ccccc3)ncnc2c(OC)c1OC` ?
2 µM

Input `COc1cc2c(NCc3cccc([N+](=O)[O-])c3)ncnc2c(OC)c1OC`
3.5 µM

And `COc1cc2c(NCc3ccc4c(c3)CCC4)ncnc2c(OC)c1OC` ?
1.9 µM

Request: `COc1cc2c(NCc3ccc([N+](=O)[O-])cc3)ncnc2c(OC)c1OC`
> 100 µM

`CCCc1c(OCc2ccc3c(c2)OCO3)ccc2c(=O)cc(C(=O)O)oc12` , same question.
0.65 µM

Similarly, `COc1cc(CNc2ncnc3c(OC)c(OC)c(OC)cc23)cc(OC)c1OC` ?
8.9 µM

---

- system: cGMP-specific 3',5'-cyclic phosphodiesterase (PDE5A) (Sus scrofa)
- test summary: Inhibitory activity against cyclic GMP-phosphodiesterase (PDE V) isolated from porcine aorta.
property: IC50 (nM)
All answers are understood in nM, so give the number only.

What value of IC50 has been reported for the following compound? `COc1cc2c(NCc3ccc4c(c3)OCCO4)ncnc2c(OC)c1OC`
780

How about this compound: `COc1cc2c(NCc3ccc(Cl)cc3)ncnc2c(OC)c1OC`
1300

Okay, and `COc1cccc(CNc2ncnc3c(OC)c(OC)c(OC)cc23)c1` ?
1700

Would you mind doing `COc1cc2c(NCc3cccc(Cl)c3)ncnc2c(OC)c1OC` as well?
1300

Next compound: `COc1cc2c(=O)n(CCc3ccc4c(c3)OCO4)cnc2c(OC)c1OC`
32000

Proceed to `COc1ccc(CNc2ncnc3c(OC)c(OC)c(OC)cc23)cc1`
1000
